tested on: BDF1 mice, P388 leukemia ip, median survival T/C; test: NCI In Vivo Anticancer Drug Screen. Data for tumor model P388 Leukemia (intraperitoneal) in B6D2F1 (BDF1) mice; conditions: endpoint: median survival time; dose: 100.0 mg/kg/injection; schedule: Q04DX003 (ip); vehicle: water
Toxic doses and inconclusive results are not listed. Rule for the calls: active = survival T/C of 150% or more; inactive = T/C below 125% in these data.
Possible outcomes: True = active, False = inactive

1. CCOC(=O)C(C)(OCC)OCC: False
2. COc1ccc(CCO)cc1OC: False
3. NNc1c(C(N)=O)c2c(N)ncnc2n1C1OC(CO)C(O)C1O (stereo not given): True
4. COC(=O)CSc1ncc2cnccn12: False
5. NC(=O)C(CO)NC(=O)OCc1ccccc1 (stereo not given): False
6. O=C1CC(c2c[nH]c3nccnc23)NN1 (stereo not given): False
7. NC(Cc1nn[nH]n1)C(=O)O (stereo not given): False
8. O=NO.O=N[O-].O=N[O-].[Co+3].[NH-]CC[N-]CCO.[NH-]CC[N-]CCO: False
9. Cc1c[nH]c2nccnc12: False
10. Clc1ccc(-c2cc(=[N+]3CC[N+](=c4cc(-c5ccc(Cl)cc5)ss4)CC3)ss2)cc1: False

====

System: BDF1 mice, P388 leukemia ip, median survival T/C
Assay: NCI In Vivo Anticancer Drug Screen. Data for tumor model P388 Leukemia (intraperitoneal) in B6D2F1 (BDF1) mice
Details: endpoint: median survival time; dose: 25.0 mg/kg/injection; schedule: Q04DX003 (ip); vehicle: saline; higher = longer survival
Description: The antitumor activity of compounds was measured in mice bearing transplantable tumors. Survival or tumor size were measured and the results are expressed as the measurement made in the treated group (T) divided by the measurement made in the vehicle treated control group (C). The tumor model used in this assay is P388 Leukemia (intraperitoneal) in B6D2F1 (BDF1) mice
Toxic doses and inconclusive results are not listed.
Here, each record is paired with measured T/C data.
Observable: T/C

1) O=COc1ccc([N+](=O)[O-])cc1: 95 % of control
2) COc1ccc(NC(=O)C(C)C(C)=O)cc1 (configuration not stated): 102 % of control
3) CCOC(=O)/C(C#N)=N\O: 113 % of control
4) COc1ccc(NC(=O)CC(C)=O)cc1: 111 % of control
5) CSc1ncc2n1C=CN(C(=O)c1ccc([N+](=O)[O-])cc1)C2O (configuration not stated): 107 % of control
6) COc1cc2ccc3cc[n+](C)cc3c2cc1OC: 104 % of control
7) COc1cc2ccc3ccncc3c2cc1OC: 95 % of control

====

test system: BDF1 mice, P388 leukemia ip, median survival T/C; assay: NCI In Vivo Anticancer Drug Screen. Data for tumor model P388 Leukemia (intraperitoneal) in B6D2F1 (BDF1) mice; settings: endpoint: median survival time; dose: 100.0 mg/kg/injection; schedule: Q04DX003 (ip); vehicle: saline with Tween-80
Inconclusive results and toxic doses are left out. The calls were made as follows: active = survival T/C of 150% or more; inactive = T/C below 125% in these data.
Labels: active, inactive

1. O=C(Nc1ccc(C2=NCCN2)cc1)c1ccc(C(=O)Nc2ccc(C3=NCCN3)cc2)c(F)c1: active
2. CCC(C)C(NC(=O)OCc1ccccc1)C(=O)ON1C(=O)CCC1=O (configuration not stated): inactive
3. CCN(CCO)CCNc1ccc(C)c2sc3ccccc3c(=O)c12: inactive
4. CCCCCCC/C=C\c1cnc2nc(N)nc(N)c2n1: inactive
5. CNS(=O)(=O)c1ccc2c(c1)[nH]c(=S)n2C: inactive
6. CCCCCCCCSc1ncnc2nc[nH]c12: inactive
7. O=C(O)CNC(=O)C(Br)Cc1ccccc1 (configuration not stated): inactive
8. COc1ccc(/C=C/C(=O)c2ccc(Cl)cc2)c(OC)c1: inactive
9. CCCNC(=O)Oc1ccc(C(=O)OCC)cc1: inactive
10. CCCCCCCCCCCCCCCCCCNC(=S)N/N=C/c1ccc(Cl)cc1Cl: inactive
11. CC(=O)Nc1c(Cl)c(Cl)c2c(c1Cl)C(=O)c1cc(Cl)ccc1-2: inactive
12. CN1CCN(C(=O)c2ccc(Cl)c(Cl)c2)CC1: inactive

====

The reader will find reported T/C values listed item by item below.
tested on: BDF1 mice, P388 leukemia ip, median survival T/C; test: NCI In Vivo Anticancer Drug Screen. Data for tumor model P388 Leukemia (intraperitoneal) in B6D2F1 (BDF1) mice; conditions: endpoint: median survival time; dose: 25.0 mg/kg/injection; schedule: Q01DX009 (ip); vehicle: saline with Tween-80; higher = longer survival
Inconclusive results and toxic doses are left out. Residues, ends and D or L forms follow the SMILES beside them. *: point of attachment. Bn = c1ccc(C*)cc1
Observable: T/C

1) O=C1O/C(=C2\OCc3ccccc32)c2ccccc21: 100 % of control
2) O=c1cc(-c2cccs2)ss1: 106 % of control
3) N#CC(C#N)=c1ccc(=C(C#N)C#N)cc1: 108 % of control
4) CC(=O)Oc1cc2c(cc1OC(C)=O)C(=O)CCC=C2: 109 % of control
5) Cc1ccc(NC(=O)N(CCCl)N=O)cc1NC(=O)N(CCCl)N=O: 113 % of control
6) COC(=O)c1ccc(Cl)c(Cl)c1: 101 % of control
7) COc1ccc(CC(=O)N2CCc3cc(OC)c(OC)cc3C2O)cc1OC (stereo not given): 89 % of control
8) OC(Cc1ccc2ccccc2n1)C(Cl)(Cl)Cl (stereo not given): 92 % of control
9) COP(=O)(OC)OC=C(Cl)Cl: 102 % of control
10) N/N=C(\N)c1nn[nH]n1: 96 % of control
11) CC(Nc1ccc(Br)cc1[N+](=O)[O-])C(=O)O (stereo not given): 122 % of control
12) O=C1c2ccccc2C(=O)c2c(O)c3c(c(O)c21)CC=CC3: 98 % of control
13) O=C(O)c1ccc(Oc2nc3ccccc3s2)cc1: 95 % of control
14) NC(=O)c1c(N)sc2c1CCCC2: 95 % of control
15) CN(C)N=Nc1ccc(-c2ccccc2)cc1: 99 % of control
16) COC1OC2COC(c3ccccc3)OC2C2OC12 (stereo not given): 96 % of control
17) CN=C(NC)c1ccc(NC(=O)c2ccc(C(=O)Nc3ccc(C(=NC)NC)cc3)cc2)cc1: 86 % of control
18) O=[N+]([O-])c1ccc(N/N=C(\c2ccccc2)c2ccsc2)c([N+](=O)[O-])c1: 96 % of control
19) O=C1/C(=C/c2ccccc2)Cc2ccccc21: 96 % of control
20) CC/C(C)=C1\OC(=O)C(C)C(O)C(Cc2cccnc2)NC(=O)C(NC(=O)c2ncccc2O)C(C)OC1=O (stereo not given): 93 % of control
21) O=C(O)C1CC2C=CC1C2 (stereo not given): 113 % of control
22) CC1(C)CCC(C#N)=C1N: 91 % of control
23) COC(=O)C(CC(C)C)NC(=O)C(N)Cc1ccc(OCc2ccccc2)cc1 (stereo not given) (H-Tyr(Bn)-Leu-OMe; configuration not given here): 100 % of control
24) CC(=O)Nc1ccc(S(=O)(=O)N/N=C\c2ccc(Cl)c(Cl)c2)cc1: 96 % of control
25) COc1ccc(OC)c(C(=O)C[n+]2ccccc2)c1: 91 % of control

====

test system: BDF1 mice, P388 leukemia ip, median survival T/C; assay: NCI In Vivo Anticancer Drug Screen. Data for tumor model P388 Leukemia (intraperitoneal) in B6D2F1 (BDF1) mice; details: endpoint: median survival time; dose: 400.0 mg/kg/injection; schedule: Q04DX003 (ip); vehicle: Klucel (hydroxypropylcellulose) (HPC); higher = longer survival
Inconclusive results and toxic doses are left out.
Observable: T/C

1) CCC(C#N)(c1ccccc1)c1ccccc1: 100 % of control
2) Cc1ccc(OC/C=C/CS(=O)(=O)c2ccc(Cl)cc2)cc1: 104 % of control
3) O=[N+]([O-])c1cccc(C=Nc2cccc(C(F)(F)F)c2)c1: 95 % of control
4) CCc1ccccc1OS(=O)(=O)c1ccccc1[N+](=O)[O-]: 100 % of control
5) CC(=O)N(C)N(Cc1ccc(C#N)cc1)C(C)=O: 111 % of control
6) CCOC(=O)c1cnn(-c2ccccc2)c1C: 104 % of control

====

tested on: BDF1 mice, P388 leukemia ip, median survival T/C; assay: NCI In Vivo Anticancer Drug Screen. Data for tumor model P388 Leukemia (intraperitoneal) in B6D2F1 (BDF1) mice; conditions: endpoint: median survival time; dose: 50.0 mg/kg/injection; schedule: Q04DX003 (ip); vehicle: saline with Tween-80
Toxic doses and inconclusive results are not listed. Rule for the calls: active = survival T/C of 150% or more; inactive = T/C below 125% in these data.
Possible outcomes: YES = active, NO = inactive

1) O=[N+]([O-])c1ccc(S(=O)(=O)c2ccc([N+](=O)[O-])cc2)cc1: NO
2) C=CCC1(CCC)C(=O)NC(=O)NC1=O: NO
3) O=C(O)c1ccc(C(=O)O)c2c(C(=O)O)ccc(C(=O)O)c12: NO
4) CS(=O)(=O)OCC(OS(C)(=O)=O)C(COS(C)(=O)=O)OS(C)(=O)=O (configuration not stated): NO
5) CC(=O)n1cc(F)c(=O)[nH]c1=O: YES
6) Cc1ccc(C(=O)Cl)cc1S(=O)(=O)F: NO
7) CC(C)C(OCc1ccccc1)C(=O)O (configuration not stated): NO
8) FC(F)(F)c1cccc(-c2nc3nc(Cl)c(Cl)nc3[nH]2)c1: NO
9) CC(=O)N=C1C=C(NC(C)=O)C(=O)c2ncccc21: NO
10) O=C(NC(NC(=O)c1ccc(Cl)cc1)C(Cl)(Cl)Cl)c1ccc(Cl)cc1: NO
11) CCN(CC)c1c(C)nnc2c(-c3ccccc3)cnn12: NO
12) CCCCCCCCCC(O)CCCCC (configuration not stated): NO
